system: TNF-α; assay: TNF-α production in LPS-stimulated human whole blood (ELISA); assay type: cell-based; details: 1 μM, LPS 4 hours, read-out: % TNF-α Inhibitory Activity in (hPBMC)
RESULT_TYPE: inhibition at 1 µM (%)
Kindly answer with a numeric value in %, unit omitted.

Task item: Field request: inhibition at 1 µM | item: Cc1nccn1CC1CCc2c(c3ccccc3n2C)/C1=N/OC(=O)C(F)(F)F (stereo not shown) [Example 26]
Reply: 20.8

Task item: Which inhibition at 1 µM value belongs to Cc1nccn1CC1CCc2c(c3ccccc3n2C)/C1=N/Oc1ccc(C(F)(F)F)c(Cl)n1 (stereo not shown) [Example 22] ?
Reply: 53.1

Task item: Could you tell me which inhibition at 1 µM is on file for Cc1nccn1CC1CCc2c(c3ccccc3n2C)/C1=N/OC(=O)c1ccc(Cl)s1 (stereo not shown) [Example 56] ?
Reply: 26.5

Task item: Consider the compound Cc1nccn1CC1CCc2c(c3ccccc3n2C)/C1=N/OC(=O)c1ccc(Br)o1 (stereo not shown) [Example 45] and give its measured inhibition at 1 µM.
Reply: 12.3

Task item: What does the data say about its inhibition at 1 µM? Entry: Cc1nccn1CC1CCc2c(c3ccccc3n2C)/C1=N/OC(=O)c1ccc(C#N)cc1 (stereo not shown) [Example 44]
Reply: 23.5

Task item: Would you mind telling me what inhibition at 1 µM value was observed for Cc1nccn1CC1CCc2c(c3ccccc3n2C)/C1=N/OCc1cccnc1 (stereo not shown) [Example 10] ?
Reply: 19.9

Task item: Requested read-out: inhibition at 1 µM. Entry: Cc1nccn1CC1CCc2c(c3ccccc3n2C)/C1=N/OC(=O)c1ccccc1Cl (stereo not shown) [Example 37]
Reply: 14.5

Task item: Please look up its inhibition at 1 µM: Cc1nccn1CC1CCc2c(c3ccccc3n2C)/C1=N/OC(=O)c1ccnc(Cl)c1 (stereo not shown) [Example 27]
Reply: 3.51

Task item: What value of measured inhibition at 1 µM is listed for Cc1nccn1CC1CCc2c(c3ccccc3n2C)/C1=N/OC(=O)c1ccc([N+](=O)[O-])o1 (stereo not shown) [Example 47] ?
Reply: 18

Task item: Request the reported inhibition at 1 µM associated with Cc1ccoc1C(=O)O/N=C1/c2c(n(C)c3ccccc23)CCC1Cn1ccnc1C (stereo not shown) [Example 48]
Reply: 20.7

* * *

Please go through the items and note down their melting point.

Task item: I'd like to know its melting point. The molecule in question is Cc1nccn1CC1CCc2c(c3ccccc3n2C)/C1=N/OC(=O)c1ccccc1Cl (stereo not shown)
Reply: 111 to 116 °C

Task item: Value lookup for melting point; key = Cc1nccn1CC1CCc2c(c3ccccc3n2C)/C1=N/OC(=O)c1ccc(Cl)s1 (stereo not shown)
Reply: 140 to 144 °C

Task item: I have this molecule here, Cc1cc(C(=O)O/N=C2/c3c(n(C)c4ccccc34)CCC2Cn2ccnc2C)no1 (stereo not shown) , and I need its recorded melting point.
Reply: 154 to 157 °C

Task item: Report melting point for Cc1nccn1CC1CCc2c(c3ccccc3n2C)C1NO (stereo not shown) please.
Reply: 140 to 144 °C

Task item: Any idea what its melting point is? The molecule is Cc1nccn1CC1CCc2c(c3ccccc3n2C)/C1=N/OC(=O)c1ccccc1Br (stereo not shown)
Reply: 108 to 112 °C

Task item: I would be grateful if you could share the reported melting point for Cc1nccn1CC1CCc2c(c3ccccc3n2C)/C1=N/OC(=O)C(F)(F)F (stereo not shown) .
Reply: 148 to 150 °C

Task item: // returns reported melting point for input Cc1nccn1CC1CCc2c(c3ccccc3n2C)/C1=N/OC(=O)c1ccc(F)cc1 (stereo not shown)
Reply: 192 to 200 °C

Task item: Please look up its melting point: COc1ccc(C(=O)O/N=C2/c3c(n(C)c4ccccc34)CCC2Cn2ccnc2C)cc1 (stereo not shown)
Reply: 200 to 203 °C

Task item: Recorded melting point for Cc1nccn1CC1CCc2c(c3ccccc3n2C)/C1=N/OC(=O)c1ccccc1 (stereo not shown) , please?
Reply: 179 to 185 °C

Task item: Item Cc1nccn1CC1CCc2c(c3ccccc3n2C)/C1=N/OC(=O)c1ccc([N+](=O)[O-])o1 (stereo not shown) has what recorded melting point?
Reply: 186 to 190 °C

Task item: Record request: melting point value, item Cc1nccn1CC1CCc2c(c3ccccc3n2C)/C1=N/OC(=O)c1ccc(Cl)cc1 (stereo not shown)
Reply: 206 to 212 °C

Task item: Fill blank: measured melting point of the molecule Cc1nccn1CC1CCc2c(c3ccccc3n2C)/C1=N/OC(=O)c1ccoc1 (stereo not shown) is ____.
Reply: 158 to 164 °C

Task item: For the molecule Cc1nccn1CC1CCc2c(c3ccccc3n2C)/C1=N/OC(=O)c1ccc(C(F)(F)F)cc1 (stereo not shown) , what melting point is on record?
Reply: 200 to 203 °C

Task item: What melting point value was documented for this molecule, Cc1nccn1CC1CCc2c(c3ccccc3n2C)/C1=N/OC(=O)c1cccc(Cl)n1 (stereo not shown) ?
Reply: 170 to 175 °C

Task item: Quick one: melting point of Cc1nccn1CC1CCc2c(c3ccccc3n2C)/C1=N/O (stereo not shown) ?
Reply: 231 to 233 °C

Task item: Name the recorded melting point for Cc1nccn1CC1CCc2c(c3ccccc3n2C)/C1=N/OC(=O)c1ccc(C#N)cc1 (stereo not shown) .
Reply: 178 to 180 °C

Task item: Give the measured melting point of Cc1ccoc1C(=O)O/N=C1/c2c(n(C)c3ccccc23)CCC1Cn1ccnc1C (stereo not shown) .
Reply: 165 to 170 °C

Task item: Quick check: melting point of Cc1ccc(C(=O)O/N=C2/c3c(n(C)c4ccccc34)CCC2Cn2ccnc2C)cc1 (stereo not shown) ?
Reply: 207 to 212 °C

Task item: Report melting point for Cc1nccn1CC1CCc2c(c3ccccc3n2C)/C1=N/OC(=O)c1ccccc1F (stereo not shown) please.
Reply: 172 to 175 °C

Task item: What melting point value was documented for this molecule, Cc1nccn1CC1CCc2c(c3ccccc3n2C)/C1=N/OC(=O)c1cccc(C#N)c1 (stereo not shown) ?
Reply: 160 to 166 °C

Task item: Fill in the blank: the reported melting point of Cc1ccsc1C(=O)O/N=C1/c2c(n(C)c3ccccc23)CCC1Cn1ccnc1C (stereo not shown) is ____.
Reply: 177 to 180 °C

Task item: What value of melting point has been reported for the following molecule? Cc1nccn1CC1CCc2c(c3ccccc3n2C)/C1=N/OC(=O)C1CCCCC1 (stereo not shown)
Reply: 98 to 106 °C

Task item: Item under review: CCc1ccc(C(=O)O/N=C2/c3c(n(C)c4ccccc34)CCC2Cn2ccnc2C)cc1 (stereo not shown) . Reported melting point?
Reply: 175 to 178 °C

Task item: Which melting point reading was recorded for the molecule Cc1nccn1CC1CCc2c(c3ccccc3n2C)/C1=N/OC(=O)c1ccsc1 (stereo not shown) ?
Reply: 171 to 175 °C

Task item: # melting point lookup, item Cc1nccn1CC1CCc2c(c3ccccc3n2C)/C1=N/OC(=O)c1ccnc(Cl)c1 (stereo not shown)
Reply: 172 to 174 °C
